Below, each entry is listed alongside its reported log10 of Kd.
Biological target: T1, Bcl-w (biotinylated pro-survival Bcl-2 family protein) (UniProt Q92843 1-164, limits assumed, biotinylated (co-expressed E. coli biotin ligase BirA))
T1 sequence (looked up): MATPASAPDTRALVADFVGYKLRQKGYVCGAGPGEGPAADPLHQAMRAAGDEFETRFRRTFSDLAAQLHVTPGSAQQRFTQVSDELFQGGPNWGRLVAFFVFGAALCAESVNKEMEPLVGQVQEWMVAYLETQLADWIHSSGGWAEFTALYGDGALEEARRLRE
Assay: flow cytometry of E. coli displaying the peptide on eCPX, biotinylated target + streptavidin-PE; apparent Kd
Where no end group is shown, it is not given here. eCPX = enhanced circularly permuted OmpX display scaffold; linker = not defined here
result-type: log10 of Kd (log10 of the value in nM)

binder="WIAQELRRIGDEFN-{linker-eCPX} (reading uncertain, also called WT; Bim WT; not shown: eCPX (enhanced circularly permuted OmpX) display scaffold and its linker, fused C-terminal to the peptide) [wild-type Bim BH3 14-mer peptide (residues 147-160) displayed on eCPX]" result_type="log10 of Kd" quantitative_result=2.77
binder="WIAQQLRRIGDEFN (not fully specified, also called pseudo-wild-type Bim; Bim E151Q; not shown: eCPX display scaffold and the linker to it) [Bim BH3 14-mer E151Q (pseudo-wild-type) displayed on eCPX]" result_type="log10 of Kd" quantitative_result=2.81
binder="WLAQLLRRYGDEFN (also: displayed as fusion to eCPX scaffold (letters not given here), Clone selected against Bcl-xL; not shown: eCPX display scaffold and the linker to it) [Bim BH3 14-mer variant X2-8 displayed on eCPX]" result_type="log10 of Kd" quantitative_result=2.98
binder="WVAQWLRRWGDEFN (also: displayed as fusion to eCPX scaffold (letters not given here), Clone selected against Bcl-xL; not shown: eCPX display scaffold and the linker to it) [Bim BH3 14-mer variant X2-3 displayed on eCPX]" result_type="log10 of Kd" quantitative_result=3.77
binder="WLAQLLRRIGDEIN-{linker-eCPX} (reading uncertain; also: printed as Trp-Leu-Ala-Gln-Leu-Leu-Arg-Arg-Ile-Gly-Asp-Glu-Ile-Asn, Clone selected against Mcl-1; not shown: eCPX display scaffold and its linker, fused C-terminal to the peptide) [Bim BH3 14-mer variant M2-4 displayed on eCPX]" result_type="log10 of Kd" quantitative_result=2.73
